Taken from patent US11098055B2.

Target: hACC2 (Homo sapiens)
Sequence (O00763 whole entry): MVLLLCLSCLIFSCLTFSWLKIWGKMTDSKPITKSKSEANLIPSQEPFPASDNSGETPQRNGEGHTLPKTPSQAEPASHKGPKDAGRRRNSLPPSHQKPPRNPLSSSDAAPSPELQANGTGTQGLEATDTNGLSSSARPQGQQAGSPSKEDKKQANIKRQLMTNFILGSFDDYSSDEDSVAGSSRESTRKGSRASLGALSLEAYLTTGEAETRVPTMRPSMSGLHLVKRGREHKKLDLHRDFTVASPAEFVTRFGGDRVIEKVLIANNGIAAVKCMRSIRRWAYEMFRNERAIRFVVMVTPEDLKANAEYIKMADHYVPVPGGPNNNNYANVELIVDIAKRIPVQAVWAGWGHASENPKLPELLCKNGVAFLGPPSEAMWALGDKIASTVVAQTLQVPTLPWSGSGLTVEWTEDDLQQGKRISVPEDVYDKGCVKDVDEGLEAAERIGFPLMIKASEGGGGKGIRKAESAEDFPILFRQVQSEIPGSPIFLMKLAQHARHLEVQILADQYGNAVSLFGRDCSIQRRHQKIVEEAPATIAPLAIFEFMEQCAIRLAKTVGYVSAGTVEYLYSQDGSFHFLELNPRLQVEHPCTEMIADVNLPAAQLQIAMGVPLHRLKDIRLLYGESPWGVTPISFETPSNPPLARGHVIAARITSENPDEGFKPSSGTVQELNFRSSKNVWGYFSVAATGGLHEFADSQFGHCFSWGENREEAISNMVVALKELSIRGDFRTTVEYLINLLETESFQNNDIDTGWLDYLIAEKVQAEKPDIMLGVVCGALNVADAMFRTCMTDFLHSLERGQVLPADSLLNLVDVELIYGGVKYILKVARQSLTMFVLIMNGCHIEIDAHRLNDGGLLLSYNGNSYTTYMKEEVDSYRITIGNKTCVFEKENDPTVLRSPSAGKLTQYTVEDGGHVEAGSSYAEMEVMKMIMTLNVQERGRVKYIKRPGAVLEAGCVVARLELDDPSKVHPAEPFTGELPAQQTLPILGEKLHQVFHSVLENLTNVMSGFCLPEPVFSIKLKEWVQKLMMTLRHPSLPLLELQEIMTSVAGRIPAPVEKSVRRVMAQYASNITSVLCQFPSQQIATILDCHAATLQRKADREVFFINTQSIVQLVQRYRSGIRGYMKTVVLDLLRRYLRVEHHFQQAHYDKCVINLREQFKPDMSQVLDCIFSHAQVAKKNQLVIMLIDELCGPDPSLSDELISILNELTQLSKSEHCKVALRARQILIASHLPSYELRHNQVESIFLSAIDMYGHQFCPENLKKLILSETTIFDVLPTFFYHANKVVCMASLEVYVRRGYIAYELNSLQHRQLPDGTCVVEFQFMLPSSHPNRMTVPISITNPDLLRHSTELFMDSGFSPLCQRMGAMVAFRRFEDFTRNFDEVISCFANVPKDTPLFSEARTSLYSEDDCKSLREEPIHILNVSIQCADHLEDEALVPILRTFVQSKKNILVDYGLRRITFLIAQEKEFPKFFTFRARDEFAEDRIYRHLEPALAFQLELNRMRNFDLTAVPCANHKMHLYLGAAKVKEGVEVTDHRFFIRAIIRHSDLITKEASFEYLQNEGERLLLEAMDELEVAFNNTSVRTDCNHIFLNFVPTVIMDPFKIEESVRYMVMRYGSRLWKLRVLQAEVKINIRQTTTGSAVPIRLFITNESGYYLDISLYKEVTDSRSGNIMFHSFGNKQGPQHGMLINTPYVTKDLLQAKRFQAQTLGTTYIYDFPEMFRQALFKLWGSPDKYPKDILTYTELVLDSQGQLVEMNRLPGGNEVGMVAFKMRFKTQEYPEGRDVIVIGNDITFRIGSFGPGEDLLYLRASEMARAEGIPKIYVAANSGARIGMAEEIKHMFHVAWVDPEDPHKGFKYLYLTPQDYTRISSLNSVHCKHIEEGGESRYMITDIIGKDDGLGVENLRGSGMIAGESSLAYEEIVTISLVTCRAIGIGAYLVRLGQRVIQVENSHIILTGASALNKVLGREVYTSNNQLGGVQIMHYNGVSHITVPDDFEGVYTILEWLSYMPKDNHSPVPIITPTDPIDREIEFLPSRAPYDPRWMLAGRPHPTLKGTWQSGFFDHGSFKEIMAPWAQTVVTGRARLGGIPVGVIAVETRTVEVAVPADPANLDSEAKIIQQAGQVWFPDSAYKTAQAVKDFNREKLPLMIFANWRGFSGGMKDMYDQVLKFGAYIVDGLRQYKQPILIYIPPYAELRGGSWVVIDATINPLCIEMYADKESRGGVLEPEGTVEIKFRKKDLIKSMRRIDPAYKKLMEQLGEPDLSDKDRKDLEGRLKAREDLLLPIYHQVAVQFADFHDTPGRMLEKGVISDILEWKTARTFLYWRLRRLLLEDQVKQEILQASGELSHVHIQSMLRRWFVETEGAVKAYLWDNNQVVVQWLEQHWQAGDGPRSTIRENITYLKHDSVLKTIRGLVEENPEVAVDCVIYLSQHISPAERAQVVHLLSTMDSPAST
Assay: In vitro ACC2 inhibition assay (ADP-Glo), human ACC2
Type: biochemical
Details: Table 2b (additional results)
measure-name: IC50

Here's what some known entries look like.
[
  {
    "compound": "CCOC(=O)c1sc2c(c1C)c(=O)n([C@@H](C)C(=O)N(C)C(C)C)c(=O)n2C[C@H](OCCC#N)c1cc(F)ccc1OC [Compound I-28]",
    "system-under-test": "hACC2 (Homo sapiens)",
    "measure-name": "IC50",
    "obs-value": "3 to 10 nM"
  },
  {
    "compound": "CCOC(=O)c1sc2c(c1C)c(=O)n([C@H](C)C(=O)N1CCCC1)c(=O)n2C[C@H](OCCC#N)c1cc(F)ccc1OC [Compound I-24]",
    "system-under-test": "hACC2 (Homo sapiens)",
    "measure-name": "IC50",
    "obs-value": "3 to 10 nM"
  },
  {
    "compound": "CCOC(=O)c1sc2c(c1C)c(=O)n([C@H](C)C(=O)NC(C)C)c(=O)n2C[C@H](O)c1cc(F)ccc1OC [Compound I-43]",
    "system-under-test": "hACC2 (Homo sapiens)",
    "measure-name": "IC50",
    "obs-value": "≥ 40 nM"
  },
  {
    "compound": "CCOC(=O)c1sc2c(c1C)c(=O)n(C(C)(C)C(=O)N1CCCC1)c(=O)n2C[C@H](O)c1cc(F)ccc1OC [Compound I-22]",
    "system-under-test": "hACC2 (Homo sapiens)",
    "measure-name": "IC50",
    "obs-value": "10 to 40 nM"
  },
  {
    "compound": "CCNC(=O)[C@@H](C)n1c(=O)c2c(C)c(C(=O)OCC)sc2n(C[C@H](OCCC#N)c2cc(F)ccc2OC)c1=O [Compound I-41]",
    "system-under-test": "hACC2 (Homo sapiens)",
    "measure-name": "IC50",
    "obs-value": "10 to 40 nM"
  }
]

For the compound CCOC(=O)c1sc2c(c1C)c(=O)n(C(C)(C)C(=O)N1CCCC1)c(=O)n2C[C@H](OC1CCOCC1)c1ccccc1OC [Compound I-3] , what IC50 is on record?
10 to 40 nM
